# tgt: UniProt Q9BUB5
# Sequence (Q9BUB5 other isoform, or with tags, fused parts or gaps): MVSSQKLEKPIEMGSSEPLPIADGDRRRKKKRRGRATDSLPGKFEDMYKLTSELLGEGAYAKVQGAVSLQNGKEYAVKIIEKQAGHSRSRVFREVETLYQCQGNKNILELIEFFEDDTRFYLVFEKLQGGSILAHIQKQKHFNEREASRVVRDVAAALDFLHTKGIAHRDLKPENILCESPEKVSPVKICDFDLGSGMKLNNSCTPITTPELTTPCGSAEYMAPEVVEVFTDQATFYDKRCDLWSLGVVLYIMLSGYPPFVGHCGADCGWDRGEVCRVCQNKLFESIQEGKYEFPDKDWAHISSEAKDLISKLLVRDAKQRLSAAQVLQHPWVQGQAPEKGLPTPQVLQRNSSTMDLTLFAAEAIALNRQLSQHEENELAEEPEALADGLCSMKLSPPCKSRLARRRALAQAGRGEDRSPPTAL
# testName: MNK1 in vitro kinase assay (Assay 3), Z'-LYTE
# Assay type: biochemical
# conditionSummary: compound concentration of 1 μM, read-out: MNK1 % INH
readout: inhibition at 1 µM (%)

Examples with answers:
Request: Quick one: inhibition at 1 µM of O=S1(=Nc2cc(F)c3c(Nc4cccnc4O[C@H]4COC[C@H]4O)ncnc3c2)CCCC1 (racemic) [Example 2.30] ?
Result: 97

Request: Query (compound): Cc1cc(N=S2(=O)CCCCC2)cc2ncnc(Nc3cccnc3O[C@H]3COC[C@H]3O)c12 (racemic) [Example 2.31] ; field requested: inhibition at 1 µM
Result: 94

I. Cc1cc(N=S(C)(C)=O)cc2ncnc(Nc3cccnc3O[C@@H]3COC[C@@H]3O)c12 (racemic) [Example 2.4]
II. CO[C@@H]1CN(C(=O)OCc2ccccc2)C[C@H]1Oc1ncccc1Nc1ncnc2cc(N=S3(=O)CCCC3)cc(C)c12 [Example 2.16]
Request: Compare I and II and name the one whose reported inhibition at 1 µM is smaller. Mark your answer with the label of the selected entry.
Result: II
(II: 55%, I: 93%)
